Readings of IC50 for the listed molecules
experimentalSystem: human D2R/β-arrestin (Homo sapiens (Human), UniProt P14416)
Sequence (P14416 whole entry): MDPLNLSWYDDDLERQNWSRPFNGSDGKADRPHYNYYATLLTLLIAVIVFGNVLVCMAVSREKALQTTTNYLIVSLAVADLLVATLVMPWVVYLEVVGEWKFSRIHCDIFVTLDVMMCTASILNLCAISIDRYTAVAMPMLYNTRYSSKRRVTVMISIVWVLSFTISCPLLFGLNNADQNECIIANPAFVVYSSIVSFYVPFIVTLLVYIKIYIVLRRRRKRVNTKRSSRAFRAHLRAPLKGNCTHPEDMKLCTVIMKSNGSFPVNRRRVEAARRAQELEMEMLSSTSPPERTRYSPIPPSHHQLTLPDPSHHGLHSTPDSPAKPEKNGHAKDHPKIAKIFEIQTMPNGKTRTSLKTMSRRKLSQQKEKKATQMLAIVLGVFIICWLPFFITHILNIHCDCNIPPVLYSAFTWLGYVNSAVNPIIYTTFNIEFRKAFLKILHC
assay: cell-based
assaySetup: cAMP Antagonist, CHO-K1 cells expressing human D2R/β-arrestin; antagonist mode, 2.5 μM forskolin and 2.7 nM quinpirole

Examples from the recorded data:
Task: Give reported IC50 value for Cc1ccc(OCCN2CCC(C)(Oc3ccc(Cl)cc3)C2)cc1 (stereo not drawn) [Compound 16]
Output: > 30 µM

Task: Give reported IC50 value for CC1(Oc2ccc(Cl)cc2)CCN(CCOc2cccc(C(F)(F)F)c2)C1 (stereo not drawn) [Compound 13]
Output: 0.1 to 1 µM

***
Task: Give reported IC50 value for OC1(Cc2ccccc2)CCN(CCOc2ccccc2C(F)(F)F)CC1 [Compound 114]
Output: < 0.1 µM

Task: Give reported IC50 value for CC1(Oc2ccc(Cl)cc2)CCN(CCCc2ccccc2)C1 (stereo not drawn) [Compound 26]
Output: 0.1 to 1 µM

Task: Give reported IC50 value for CC1(Oc2ccc(Cl)cc2)CCN(CCOC2CCCCC2)C1 (stereo not drawn) [Compound 21]
Output: 1 to 10 µM
